Target: 14-3-3γ (Homo sapiens, UniProt P61981)
Construct: made in house; host or cells: E. coli NiCo21 (DE3)
Sequence (P61981 whole entry): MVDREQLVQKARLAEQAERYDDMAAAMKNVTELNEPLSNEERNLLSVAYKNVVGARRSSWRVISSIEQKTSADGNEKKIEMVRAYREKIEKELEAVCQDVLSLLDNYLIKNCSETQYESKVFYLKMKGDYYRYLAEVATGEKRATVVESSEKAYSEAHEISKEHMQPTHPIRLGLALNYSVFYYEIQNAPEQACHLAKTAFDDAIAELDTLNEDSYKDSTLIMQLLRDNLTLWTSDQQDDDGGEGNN
Assay: Isothermal titration calorimetry (ITC) of 14-3-3 binding to peptide
Conditions: Table S6; ITC, 25 °C; average of two runs
Where a SMILES comes first, the peptide text is derived from it. [ ]: non-standard residue; d: D form. ξ: configuration not given here. Phe(4-NO2) = N[C@@H](Cc1ccc([N+](=O)[O-])cc1)C(=O)O; ξAla(4-thiazolyl) = NC(Cc1cscn1)C(=O)O; pS = N[C@@H](COP(=O)(O)O)C(=O)O; β3hS = N[C@@H](CO)CC(=O)O; Nva = CCC[C@H](N)C(=O)O; ξβ3hS = NC(CO)CC(=O)O; βAla = NCCC(=O)O
Reported metric: ΔG

CCC[C@H](NC(=O)[C@H](N)CCCCN)C(=O)N[C@@H](Cc1ccc([N+](=O)[O-])cc1)C(=O)N[C@@H](C)C(=O)N[C@@H](COP(=O)(O)O)C(=O)N[C@@H](Cc1ccc([N+](=O)[O-])cc1)C(=O)N[C@@H](CO)CC(=O)NCCC(=O)N[C@@H](Cc1ccc([N+](=O)[O-])cc1)C(=O)N[C@@H](CCCCN)C(N)=O [3a] (H-[dK][Nva][Phe(4-NO2)]A[pS][Phe(4-NO2)][β3hS][βAla][Phe(4-NO2)]K-NH2; N-terminus and C-terminus assumed) ... -9,69 kcal mol^-1
CCC[C@H](NC(=O)[C@H](N)CCCCN)C(=O)N[C@@H](Cc1ccc([N+](=O)[O-])cc1)C(=O)NC(Cc1cscn1)C(=O)N[C@@H](COP(=O)(O)O)C(=O)N[C@@H](Cc1ccc([N+](=O)[O-])cc1)C(=O)NC(CO)CC(=O)NCCC(=O)N[C@@H](Cc1ccc([N+](=O)[O-])cc1)C(=O)N[C@@H](CCCCN)C(N)=O (stereo partly drawn) [compound 1] (H-[dK][Nva][Phe(4-NO2)][ξAla(4-thiazolyl)][pS][Phe(4-NO2)][ξβ3hS][βAla][Phe(4-NO2)]K-NH2) ... -10,03 kcal mol^-1

Please give the documented ΔG of CCC[C@H](NC(=O)[C@H](N)CCCCN)C(=O)N[C@@H](Cc1ccc([N+](=O)[O-])cc1)C(=O)NC(Cc1cscn1)C(=O)N[C@@H](COP(=O)(O)O)C(=O)N[C@@H](Cc1ccc(O)cc1)C(=O)N[C@@H](CO)CC(=O)NCCC(=O)N[C@@H](Cc1ccc([N+](=O)[O-])cc1)C(=O)N[C@@H](CCCCN)C(N)=O (stereo partly drawn) [4a] (H-[dK][Nva][Phe(4-NO2)][ξAla(4-thiazolyl)][pS]Y[β3hS][βAla][Phe(4-NO2)]K-NH2; N-terminus and C-terminus assumed)
-9,63 kcal mol^-1

Please give the documented ΔG of CCC[C@H](NC(=O)[C@H](N)CCCCN)C(=O)N[C@@H](Cc1ccc([N+](=O)[O-])cc1)C(=O)NC(Cc1cscn1)C(=O)N[C@@H](COP(=O)(O)O)C(=O)N[C@@H](Cc1ccc([N+](=O)[O-])cc1)C(=O)N[C@@H](CO)CC(=O)NCCC(=O)N[C@@H](C)C(=O)N[C@@H](CCCCN)C(N)=O (stereo partly drawn) [5c] (H-[dK][Nva][Phe(4-NO2)][ξAla(4-thiazolyl)][pS][Phe(4-NO2)][β3hS][βAla]AK-NH2; N-terminus and C-terminus assumed)
-7,38 kcal mol^-1

Please give the documented ΔG of CCC[C@H](NC(=O)[C@H](N)CCCCN)C(=O)N[C@@H](Cc1ccc([N+](=O)[O-])cc1)C(=O)NC(Cc1cscn1)C(=O)N[C@@H](COP(=O)(O)O)C(=O)N[C@@H](Cc1ccccc1)C(=O)N[C@@H](CO)CC(=O)NCCC(=O)N[C@@H](Cc1ccc([N+](=O)[O-])cc1)C(=O)N[C@@H](CCCCN)C(N)=O (stereo partly drawn) [4b] (H-[dK][Nva][Phe(4-NO2)][ξAla(4-thiazolyl)][pS]F[β3hS][βAla][Phe(4-NO2)]K-NH2; N-terminus and C-terminus assumed)
-10,24 kcal mol^-1
